All figures here come from the NIST ThermoML archive (doi:10.1021/je020130i).

details: 363.15 K; Liquid
Quantity: vapor or sublimation pressure (kPa)

{"Item smiles": "CC#N", "Unit annotation": "kPa", "vapor or sublimation pressure": 131.21}
{"Item smiles": "Clc1ccccc1", "Unit annotation": "kPa", "vapor or sublimation pressure": 28.33}
{"Item smiles": "CCCCCC", "Unit annotation": "kPa", "vapor or sublimation pressure": 188.05}
{"Item smiles": "c1ccccc1", "Unit annotation": "kPa", "vapor or sublimation pressure": 137.28}
